Every entry's value here was drawn from patent US8969386B2.

study.target: ΔF508-CFTR (Homo sapiens, UniProt P13569, DEL508-508)
Construct: expressed in transfected cells
Sequence (P13569 with tags, fused parts or gaps DEL508-508): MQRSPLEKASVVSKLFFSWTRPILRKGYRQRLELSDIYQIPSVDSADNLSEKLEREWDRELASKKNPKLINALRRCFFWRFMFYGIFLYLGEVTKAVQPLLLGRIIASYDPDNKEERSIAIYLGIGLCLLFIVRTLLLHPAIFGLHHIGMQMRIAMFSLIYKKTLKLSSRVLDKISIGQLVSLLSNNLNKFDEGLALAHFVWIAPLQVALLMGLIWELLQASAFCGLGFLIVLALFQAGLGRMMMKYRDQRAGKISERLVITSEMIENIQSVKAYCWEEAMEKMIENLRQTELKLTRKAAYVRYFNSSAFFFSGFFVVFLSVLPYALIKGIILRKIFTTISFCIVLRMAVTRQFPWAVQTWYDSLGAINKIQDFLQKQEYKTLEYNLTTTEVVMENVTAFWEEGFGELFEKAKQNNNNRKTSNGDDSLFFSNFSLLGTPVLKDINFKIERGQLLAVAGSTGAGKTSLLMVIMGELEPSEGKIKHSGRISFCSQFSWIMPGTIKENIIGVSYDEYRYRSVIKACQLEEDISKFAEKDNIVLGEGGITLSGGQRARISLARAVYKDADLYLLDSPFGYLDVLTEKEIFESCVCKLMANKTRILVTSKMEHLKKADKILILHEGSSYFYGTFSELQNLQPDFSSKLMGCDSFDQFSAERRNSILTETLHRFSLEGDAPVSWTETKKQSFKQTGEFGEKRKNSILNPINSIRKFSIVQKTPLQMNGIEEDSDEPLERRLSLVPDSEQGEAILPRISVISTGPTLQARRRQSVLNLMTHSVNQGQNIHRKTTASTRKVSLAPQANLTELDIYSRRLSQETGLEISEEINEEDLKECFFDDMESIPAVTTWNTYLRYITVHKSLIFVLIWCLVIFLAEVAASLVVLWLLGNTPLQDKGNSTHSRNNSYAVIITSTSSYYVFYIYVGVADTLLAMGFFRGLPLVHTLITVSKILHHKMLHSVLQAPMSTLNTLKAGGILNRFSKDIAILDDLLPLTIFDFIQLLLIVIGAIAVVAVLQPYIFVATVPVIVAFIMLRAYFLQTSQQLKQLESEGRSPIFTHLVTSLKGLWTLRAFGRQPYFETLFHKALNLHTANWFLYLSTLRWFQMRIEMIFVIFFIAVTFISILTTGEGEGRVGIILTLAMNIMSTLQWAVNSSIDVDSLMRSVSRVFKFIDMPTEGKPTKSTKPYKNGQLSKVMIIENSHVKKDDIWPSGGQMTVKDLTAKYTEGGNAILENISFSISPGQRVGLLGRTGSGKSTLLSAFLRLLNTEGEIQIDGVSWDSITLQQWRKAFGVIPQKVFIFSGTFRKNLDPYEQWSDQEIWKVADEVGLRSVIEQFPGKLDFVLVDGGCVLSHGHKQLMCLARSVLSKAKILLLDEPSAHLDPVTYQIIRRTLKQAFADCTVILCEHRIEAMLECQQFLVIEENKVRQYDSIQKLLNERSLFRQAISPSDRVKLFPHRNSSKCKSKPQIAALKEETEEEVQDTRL
procedure.details: ΔF508-CFTR correction, membrane potential optical (FRET/VIPR) assay
Type: cell-based
condition.context: NIH3T3 mouse fibroblasts stably expressing ΔF508-CFTR; read-out: % Efficacy
Excerpt: Assays for Detecting and Measuring ΔF508-CFTR Correction Properties of Compounds Membrane potential optical methods for assaying ΔF508-CFTR modulation properties of compounds […] These voltage sensitive assays are based on the change in fluorescence resonant energy transfer (FRET) between the membrane-soluble, voltage-sensitive dye, DiSBAC2(3), and a fluorescent phospholipid, CC2-DMPE, which is attached to the outer leaflet of the plasma membrane and acts as a FRET donor. […]
measure: Emax

1. Cc1ccc(NC(=O)C2(c3ccc4c(c3)OC(F)(F)O4)CC2)nc1-c1cc[nH]c(=O)c1Cl = > 100%
2. Cc1ccc(NC(=O)C2(c3ccc4c(c3)OC(F)(F)O4)CC2)nc1-c1c[nH]c(=O)c(CO)c1 = 50 to 100%
3. Cc1ncc(NC(=O)C2(c3ccc4c(c3)OC(F)(F)O4)CC2)nc1-c1ccc(=O)[nH]c1 = 50 to 100%

// Emax lookup, compound = Cc1cc(NC(=O)C2(c3ccc4c(c3)CCO4)CC2)nc(-c2ccc[nH]c2=O)c1C , result: 50 to 100%

// Emax lookup, compound = Cc1cc(NC(=O)C2(c3ccc4c(c3)OC(F)(F)O4)CC2)nc(-c2cc[nH]c(=O)c2)c1 , result: > 100%

* * *

study.target: ΔF508-CFTR (Homo sapiens, UniProt P13569, DEL508-508)
Construct: expressed in transfected cells
procedure.details: ΔF508-CFTR correction, membrane potential optical (FRET/VIPR) assay
Type: cell-based
condition.context: NIH3T3 mouse fibroblasts stably expressing ΔF508-CFTR; read-out: % Efficacy
measure: Emax

1) Cc1cc(NC(=O)C2(c3ccc4c(c3)CCO4)CC2)nc(-c2cc[nH]c(=O)c2)c1C [Compound 109] = 50 to 100%
2) Cc1cc(NC(=O)C2(c3ccc4c(c3)OC(F)(F)O4)CC2)nc(-c2cc(C)c[nH]c2=O)c1 [Compound 92] = 50 to 100%
3) Cc1cc(NC(=O)C2(c3ccc4c(c3)CCO4)CC2)nc(-c2ccc[nH]c2=O)c1 [Compound 69] = 50 to 100%
4) COc1ncccc1-c1cccc(NC(=O)C2(c3ccc4c(c3)OCO4)CC2)n1 [Compound 93] = > 100%
5) COc1cc(-c2nc(NC(=O)C3(c4ccc5c(c4)CCO5)CC3)cc(C)c2C)ccn1 [Compound 102] = 50 to 100%

Log: ΔF508-CFTR (Homo sapiens, UniProt P13569, DEL508-508), molecule Cc1c[nH]c(=O)c(-c2nc(NC(=O)C3(c4ccc5c(c4)CCO5)CC3)ccc2C)c1 [Compound 83] , Emax = 50 to 100%

Log: ΔF508-CFTR (Homo sapiens, UniProt P13569, DEL508-508), molecule Cc1ccc(NC(=O)C2(c3ccc4c(c3)OC(F)(F)O4)CC2)nc1-c1ccc(=O)[nH]c1C [Compound 40] , Emax = > 100%

Log: ΔF508-CFTR (Homo sapiens, UniProt P13569, DEL508-508), molecule COc1ccc(-c2nc(NC(=O)C3(c4ccc5c(c4)CCO5)CC3)cc(C)c2C)cn1 [Compound 101] , Emax = > 100%
